Listed here: compounds with reported pKi for Mineralocorticoid receptor (Homo sapiens, UniProt P08235).
pKi: −log10 of the molar value.
quantityMeasured: pKi

(a) CS(=O)(=O)Nc1cccc(C=C2c3ccccc3CCc3ccccc32)c1
(b) CC/C(=C1/c2ccccc2COc2ccccc21)c1cccc(NS(C)(=O)=O)c1
// returns a or b , whichever has the lower pKi Your answer should be the label attached to the chosen record.
a
(a: 8.61, b: 9.01)

* * *

experiment: Half life in Sprague-Dawley rat at 3 mg/kg, iv; assay type: ADME, organism-based; parameters: dose 3 mg/kg, route intravenous; conditions: in vivo
quantityMeasured: half-life (h)
Please reply with the bare figure in h and do not write the unit itself.

Annotate the compound `CC/C(=C1\c2ccccc2OCc2cccc(OC)c21)c1cccc(NS(C)(=O)=O)c1` with its measured half-life.
1.4

* * *

test: Tmax in Lewis rat collagen-induced arthritis model at 3 to 30 mg/kg, po after 15 days; assay type: ADME, organism-based; parameters: dose 3-30 mg/kg, route oral; settings: in vivo
quantityMeasured: Tmax (h)
Please reply with the bare figure in h and do not write the unit itself.

Annotate the compound `CC/C(=C1\c2ccccc2OCc2cccc(OC)c21)c1cccc(NS(C)(=O)=O)c1` with its measured Tmax.
1

* * *

assay: Oral bioavailability in Sprague-Dawley rat at 3 mg/kg; assay type: ADME, organism-based; conditions: in vivo
quantityMeasured: bioavailability (%)
Please reply with the bare figure in % and do not write the unit itself.

Annotate the compound `CC/C(=C1\c2ccccc2OCc2cccc(OC)c21)c1cccc(NS(C)(=O)=O)c1` with its measured bioavailability.
100

* * *

test: Clearance in Sprague-Dawley rat at 3 mg/kg, iv; type: ADME, organism-based; parameters: dose 3 mg/kg, route intravenous; conditions: in vivo
quantityMeasured: clearance (mL/min/kg)
Please reply with the bare figure in mL/min/kg and do not write the unit itself.

Annotate the molecule `CC/C(=C1\c2ccccc2OCc2cccc(OC)c21)c1cccc(NS(C)(=O)=O)c1` with its measured clearance.
56

* * *

assay: AUC in Sprague-Dawley rat at 3 mg/kg, po; assay type: ADME, organism-based; parameters: dose 3 mg/kg, route oral; settings: plasma
quantityMeasured: AUC (ng·h/mL)
Please reply with the bare figure in ng·h/mL and do not write the unit itself.

Annotate the compound `CC/C(=C1\c2ccccc2OCc2cccc(OC)c21)c1cccc(NS(C)(=O)=O)c1` with its measured AUC.
1300

* * *

assay: Antiinflammatory activity in human CCD-39SK cells assessed as inhibition of IL-1beta-induced IL-6 production incubated for 60 mins prior to IL-1beta induction measured after 24 hrs; format: functional, cell-based
quantityMeasured: IC50 (nM)

>  <smilesStr>
CC/C(=C1/c2ccccc2COc2ccccc21)c1cccc(NS(C)(=O)=O)c1

>  <unitsSymbol>
nM

>  <numericResult>
4.8

$$$$

(1) C/C(=C1/c2ccccc2COc2ccccc21)c1cccc(NS(C)(=O)=O)c1
(2) CC/C(=C1\c2ccccc2OCc2cccc(OC)c21)c1cccc(NS(C)(=O)=O)c1
(3) CS(=O)(=O)Nc1cccc(C=C2c3ccccc3CCc3ccccc32)c1
Put the items in order so that reported IC50 rises from first to last. Respond with the label ranking, as requested.
2, 1, 3
(2: 4.38 nM, 1: 9.32 nM, 3: 75.9 nM)

* * *

Target: Androgen receptor (Homo sapiens)
Sequence (P10275 whole entry): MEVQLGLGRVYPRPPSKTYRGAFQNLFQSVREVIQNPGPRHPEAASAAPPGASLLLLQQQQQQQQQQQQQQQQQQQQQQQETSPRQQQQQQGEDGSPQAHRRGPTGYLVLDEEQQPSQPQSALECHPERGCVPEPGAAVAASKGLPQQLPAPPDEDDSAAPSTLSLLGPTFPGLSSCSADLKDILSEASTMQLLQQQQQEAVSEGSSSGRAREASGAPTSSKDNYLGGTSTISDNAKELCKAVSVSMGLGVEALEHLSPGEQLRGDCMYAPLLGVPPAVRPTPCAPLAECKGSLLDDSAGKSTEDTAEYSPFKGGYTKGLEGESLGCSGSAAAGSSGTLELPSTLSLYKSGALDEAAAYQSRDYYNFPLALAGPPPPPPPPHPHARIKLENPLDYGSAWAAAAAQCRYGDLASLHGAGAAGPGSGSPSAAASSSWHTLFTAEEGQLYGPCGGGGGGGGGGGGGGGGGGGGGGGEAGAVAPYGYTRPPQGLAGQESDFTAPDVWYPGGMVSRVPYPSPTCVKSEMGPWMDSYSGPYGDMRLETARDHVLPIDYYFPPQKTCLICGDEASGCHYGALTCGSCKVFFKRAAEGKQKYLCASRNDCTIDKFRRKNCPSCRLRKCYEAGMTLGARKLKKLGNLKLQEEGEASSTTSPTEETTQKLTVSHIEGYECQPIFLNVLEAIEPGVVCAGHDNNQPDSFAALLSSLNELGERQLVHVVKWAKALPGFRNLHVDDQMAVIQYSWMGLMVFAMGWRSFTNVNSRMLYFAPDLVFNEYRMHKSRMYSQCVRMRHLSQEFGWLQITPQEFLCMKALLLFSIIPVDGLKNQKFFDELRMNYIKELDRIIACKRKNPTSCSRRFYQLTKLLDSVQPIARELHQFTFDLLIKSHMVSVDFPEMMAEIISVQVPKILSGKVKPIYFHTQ
quantityMeasured: Ki (nM)
Please reply with the bare figure in nM and do not write the unit itself.

Annotate the molecule `CC/C(=C1\c2ccccc2OCc2cccc(OC)c21)c1cccc(NS(C)(=O)=O)c1` with its measured Ki.
239
